These entries and their values trace back to the supplement of paper PMC6755084.

B1: minF1; the commonest letter at each place (parent)
chain: GAGACCGCAACTGAAAAGTTGTTATCAGAAATGGATGGGTTGAATTTCTGCACGTAGAAGCAAAAGGC

Variants of: B1
Test: fraction ligated after 30 min (ligated reads / total reads); higher = more ligase activity
Conditions: with F1*subA RNA substrate (template-directed ligation), 42 °C
Items are presented alongside their recorded fraction ligated.
Test Readout: fraction ligated

Mutation Annotation	Measured Result
G33C G42T	0.0409
A35G G42T	0.00567
T25A A27C	0.0652
T23A A44G	0.0455
T32C A44C	0.0116
T25A A30G	0.00687
A30C A44G	0.686
T25A A44T	0.0103
G28A A43T	0.102
G28A G42T	0.0941
C26A A35G	0.00416
G34T A43C	0.00412
A24C A27C	0.056
G34A A43T	0.00502
A30G G37C	0.00443
A35C G42T	0.00281
A27T A29T	0.832
G28A A44C	0.667
T23G G42T	0.0401
T23C T25C	0.0306
T23C	0.318
C26A A29T	0.112
G37A A43G	0.00388
G28A A44G	0.753
G34C G37C	0.00307
G33T A35T	0.0191
G33C A35C	0.0133
G28C A30G	0.816
G33A A44G	0.576
G28A G33T	0.593
G28A T36A	0.0244
A35C T36G	0.00841
A30T T36C	0.0213
T23C G34A	0.0166
G28C G33A	0.772
T36A A43T	0.00522
T36A G37A	0.00486
A27T A35G	0.384
T36C G37C	0.0038
T25G G42C	0.004
C26T A43G	0.0095
A31G G42C	0.0118
C26T	0.433
T32C A35G	0.00362
A24G G37C	0.000862
T32G T36G	0.00871
